# targetEntity: Cathepsin B from bovine spleen (bovine, UniProt P07688 80-332)
# experimentalDetails: cell-based or functional assay
measureName: Cathepsin B inhibition test, 2 mM peptide
Lab note: write the figure by itself, no unit.

Please report Cathepsin B inhibition test, 2 mM peptide for the following binder: H-Phe-Thr-Lys-OH (also: MGO-modified, site not given here) [MGO-modified H-FTK-OH]
76.6

Provide only the value of recorded Cathepsin B inhibition test, 2 mM peptide for Ac-Phe-Asp-Arg-OH (also: MGO-modified, site not given here) [MGO-modified Ac-FDR-OH]
44.8

Check the records and state Cathepsin B inhibition test, 2 mM peptide for Ac-HNIR-OH (also: MGO-modified, site not given here) [MGO-modified Ac-HNIR-OH]
107

Specify reported Cathepsin B inhibition test, 2 mM peptide for the binder shown: Ac-Cys-Asp-Arg-OH (also: MGO-modified, site not given here) [MGO-modified Ac-CDR-OH]
78.5

For the binder H-Phe-Asp-Arg-OH (also: MGO-modified, site not given here) [MGO-modified H-FDR-OH] , give its reported Cathepsin B inhibition test, 2 mM peptide.
71.2

Note Cathepsin B inhibition test, 2 mM peptide for the binder shown: H-Cys-Asp-Arg-OH [H-CDR-OH]
165
